Biological target: T1, IL-2R on human primary T cells (human, UniProt P01589 22-272; P14784 27-551; P31785 23-369)
T1 sequence (looked up) 1: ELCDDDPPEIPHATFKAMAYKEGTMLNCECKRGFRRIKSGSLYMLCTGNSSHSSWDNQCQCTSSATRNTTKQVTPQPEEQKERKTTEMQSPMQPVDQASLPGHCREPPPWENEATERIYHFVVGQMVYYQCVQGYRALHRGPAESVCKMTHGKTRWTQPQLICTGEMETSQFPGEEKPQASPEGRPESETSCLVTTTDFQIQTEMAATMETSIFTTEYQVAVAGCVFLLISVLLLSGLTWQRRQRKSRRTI
T1 sequence (looked up) 2: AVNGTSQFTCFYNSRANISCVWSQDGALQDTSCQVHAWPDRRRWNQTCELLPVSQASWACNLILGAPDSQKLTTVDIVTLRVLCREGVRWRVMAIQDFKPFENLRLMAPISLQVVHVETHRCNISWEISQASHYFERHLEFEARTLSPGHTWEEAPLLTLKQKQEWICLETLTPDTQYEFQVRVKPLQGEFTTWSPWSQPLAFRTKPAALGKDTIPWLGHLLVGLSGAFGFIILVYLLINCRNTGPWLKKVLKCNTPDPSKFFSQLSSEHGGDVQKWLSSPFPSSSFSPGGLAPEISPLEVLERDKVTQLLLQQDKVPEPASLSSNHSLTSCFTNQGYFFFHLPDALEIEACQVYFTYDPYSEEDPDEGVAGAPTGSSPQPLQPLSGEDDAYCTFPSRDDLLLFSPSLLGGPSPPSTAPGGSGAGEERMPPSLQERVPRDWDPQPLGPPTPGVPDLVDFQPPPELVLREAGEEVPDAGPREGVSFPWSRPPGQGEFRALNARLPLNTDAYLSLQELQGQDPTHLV
T1 sequence (looked up) 3: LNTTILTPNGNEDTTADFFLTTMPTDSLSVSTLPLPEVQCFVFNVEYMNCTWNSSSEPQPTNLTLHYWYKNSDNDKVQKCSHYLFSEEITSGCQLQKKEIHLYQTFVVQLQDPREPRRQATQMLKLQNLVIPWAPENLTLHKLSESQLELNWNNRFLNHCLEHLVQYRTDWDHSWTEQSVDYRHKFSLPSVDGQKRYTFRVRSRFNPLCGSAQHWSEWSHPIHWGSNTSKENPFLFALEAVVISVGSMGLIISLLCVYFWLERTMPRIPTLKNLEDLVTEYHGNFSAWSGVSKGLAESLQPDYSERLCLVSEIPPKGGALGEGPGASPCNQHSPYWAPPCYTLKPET
Test: cell-based or functional assay
Please use met whenever Treg EC50 (nM), STAT5 phosphorylation is not below 0.5 nM, and not met whenever it is.

SEQ ID NO 30 (ligand) APTSSSTKKTQLQLEHLLLDLQMILNGINNHKNPKLTRMLTFKFYMPKKATELKHLQCLEEELKPLEEALNLAPSKNFHLRPRDLISDINVIVLELKGSETTFMCEYADETATIVEFLNRWITFSQSIISTLT
met
SEQ ID NO 12 (ligand) APTSSSTKKTQLQLEHLRLDLEMILNGINNYKNPKLTRMLTFKFYMPKKATELKHLQCLEEELKPLEEVLNLAQSKNFHFDPRDVVSDINVFVLELKGSETTFMCEYADETATIVEFLNRWITFSTSIISTLT
met
SEQ ID NO 18 (ligand) APTSSSTKKTQLQLEHLLLDLQMILNGINNYKNPKLTRMLTFKFYMPKKATELKHLQCLEEELKPLEEVLNLAQSKNFHFDPRDVVSNINVFVLELKGSETTFMCEYADETATIVEFLNRWITFSQSIISTLT
not met
SEQ ID NO 29 (ligand) APTSSSTKKTQLQLEHLLLDLQMILNGINNHKNPRLTRMLTFKFYMPKKATELKHLQCLEEELKPLEEVLNLAPSKNFHLRPRDLISNINVIVLELKGSETTFMCEYADETATIVEFLNRWITFSTSIISTLT
met
SEQ ID NO 13 (ligand) APTSSSTKKTQLQLEHLLLDLQMILNGINNHKNPRLTRMLTFKFYMPKKATELKHLQCLEEELKPLEEALRLAPSKNFHLRPRDLISDINVIVLELKGSETTFMCEYADETATIVEFLNRWITFSQSIISTLT
met
SEQ ID NO 36 (ligand) APTSSSTKKTQLQLEHLLLDLQMILNGINNHKNPKLTRMLTFKFYMPKKATELKHLQCLEEELKPLEEALNLAQSKNFHLRPRDLISDINVIVLELKGSETTFMCEYADETATIVEFLNRWITFSQSIISTLT
met
SEQ ID NO 28 (ligand) APTSSSTKKTQLQLEHLLLDLQMILNGINNHKNPRLTRMLTFKFYMPKKATELKHLQCLEEELKPLEEVLNLAPSKNFHLRPRDLISDINVIVLELKGSETTFMCEYADETATIVEFLNRWITFSQSIISTLT
met
SEQ ID NO 21 (ligand) APTSSSTKKTQLQLEHLLLDLQMILNGINNHKNPKLTRMLTFKFYMPKKATELKHLQCLEEELKPLEEALNLAPSKNFHLRPRDLISNINVIVLELKGSETTFMCEYADETATIVEFLNRWITFSQSIISTLT
not met

Consider now this further binder.
**Q:** Check the entry SEQ ID NO 16 (ligand) APTSSSTKKTQLQLEHLRLDLEMILNGINNYKNPKLTRMLTFKFYMPKKATELKHLQCLEEELKPLEEVLNLAQSKNFHFDPRDVVSNINVFVLELKGSETTFMCEYADETATIVEFLNRWITFSQSIISTLT : does Treg EC50 (nM), STAT5 phosphorylation equal or exceed 0.5 nM?
**A:** not met
